Entry source: patent US12685312B2

tested on: apyrase; experiment: Screen for apyrase inhibitors (Method 1, in vitro phosphate-release absorbance assay); type: biochemical; conditions: inhibitor conc at 1 mM stock, 1 hr room temperature, absorbance 630 nm; rounded average of two assay results
Recorded metric: % Inhibition of Apyrase (%)

These recorded examples may help you get a feel for the data.
| Molecule | % Inhibition of Apyrase [%] |
| --- | --- |
| O=C(NCCCCO)c1cccc(S(=O)(=O)Nc2ccc(Br)cc2)c1 | 13 |
| Cc1ccc(C(=O)Nc2cccc(NS(=O)(=O)c3ccccc3)c2)cc1F | 75 |
| Cc1ccc(NS(=O)(=O)c2ccc(C(=O)N3CCc4ccccc43)cc2)cc1 | 65 |
| COc1cc(Cl)c(C)cc1NC(=O)c1ccccc1S(=O)(=O)N(C)c1ccccc1 [I-350] | 66 |
| O=C(Nc1ccc2c(c1)OCCCO2)c1cccc(S(=O)(=O)Nc2ccc3c(c2)OCCO3)c1 | 50 |

I: COc1ccccc1N(C)S(=O)(=O)c1ccc(C(=O)N2CCCSc3ccccc32)cc1
II: COc1ccc(C(=O)Nc2ccc(F)c(F)c2)cc1S(=O)(=O)Nc1ccc(Br)cc1
Which of the two gives a bigger number for % Inhibition of Apyrase: I or II ? Give the chosen item's label as your response.
I

a: N#Cc1ccc(C(=O)Nc2cccc(S(=O)(=O)Nc3ccc(Br)cc3)c2)cc1
b: CN(c1ccccc1)S(=O)(=O)c1ccccc1C(=O)Nc1cccc(C(N)=O)c1
Min % Inhibition of Apyrase? a | b Give the chosen item's label as your response.
b

---

system: apyrase; assay: Screen for apyrase inhibitors (Method 1, in vitro phosphate-release absorbance assay); assay type: biochemical; conditions: inhibitor conc at 1 mM stock, 1 hr room temperature, absorbance 630 nm; rounded average of two assay results
Recorded metric: % Inhibition of Apyrase (%)

These recorded examples may help you get a feel for the data.
| Molecule | Recorded metric | Recorded result |
| --- | --- | --- |
| O=C(Nc1cccc(C(F)(F)F)c1)c1cccc(NS(=O)(=O)c2ccc(Cl)s2)c1 | % Inhibition of Apyrase | 59 |
| Cc1cnc(C(=O)Nc2cccc(S(=O)(=O)Nc3cccc(Cl)c3)c2)cn1 | % Inhibition of Apyrase | 49 |
| O=C(Nc1nccs1)c1cccc(NS(=O)(=O)c2ccc(Br)cc2)c1 | % Inhibition of Apyrase | 26 |
| Cc1ccc(F)c(NC(=O)c2ccc(NS(=O)(=O)c3ccccc3)cc2)c1 | % Inhibition of Apyrase | 23 |
| O=C(c1ccc(Cl)c(S(=O)(=O)N2CCc3ccccc32)c1)N1CCc2cc([N+](=O)[O-])ccc21 | % Inhibition of Apyrase | 57 |
| Cc1ccc(NS(=O)(=O)c2cc(C(=O)Nc3cccc([N+](=O)[O-])c3)ccc2C)cc1C | % Inhibition of Apyrase | 71 |
| COC(=O)c1cccc2c1CCCN2C(=O)c1cccc(S(=O)(=O)N(C)c2ccccc2)c1 | % Inhibition of Apyrase | 47 |
| CC(=O)c1cc2c(cc1NC(=O)c1ccc(S(=O)(=O)N3CCCc4ccccc43)cc1)OCO2 | % Inhibition of Apyrase | 53 |
| N#Cc1cccc(NC(=O)c2ccc(NS(=O)(=O)c3ccc(F)c(F)c3)cc2)c1 | % Inhibition of Apyrase | 55 |
| Cc1ccc(C)c(S(=O)(=O)Nc2ccc(C(=O)Nc3ccccc3F)cc2)c1 | % Inhibition of Apyrase | 61 |

1: COc1ccc(NS(=O)(=O)c2cccc(NC(=O)c3cccc(-n4cccc4)c3)c2)cc1
2: O=C(c1ccc(S(=O)(=O)Nc2ccc(Cl)cc2)cc1)N1CCc2ccccc21
Min % Inhibition of Apyrase? 1 | 2 Give the chosen item's label as your response.
1
